Just for reference, patent US4377587A is where these values come from.

Experiment Description: Water solubility
Assay type: physicochemical
Run Conditions: 25° C.
Reported Endpoint: solubility (µg/mL)
// return numeric value only (unit: µg/mL, not printed)

COCC(=O)N(c1c(C)ccc([N+](=O)[O-])c1C)C(C)C(=O)OC(C)C (stereo not drawn)	500

Okay, next one:
[Q] What does the record list as solubility for COCC(=O)N(c1c(C)cccc1N)C(C)C(=O)OC (stereo not drawn) ?
[A] 300

* * *

Experiment Description: Water solubility
Format: physicochemical
Run Conditions: 25° C.
Attribute: solubility
// return numeric value only (unit: µg/mL, not printed)

[Q] What does the record list as solubility for COCC(=O)N(c1c(C)cccc1C)[C@@H](C)C(=O)OC [Metalaxyl, reference compound] ?
[A] 800

* * *

Experiment Description: Water solubility
Format: physicochemical
Run Conditions: 25° C.
Attribute: solubility
// return numeric value only (unit: µg/mL, not printed)

COCC(=O)N(c1c(C)cccc1[N+](=O)[O-])C(C)C(=O)OC (stereo not drawn) [Compound 48]	4000
COCC(=O)N(c1c(C)ccc([N+](=O)[O-])c1C)C(C)C(=O)OC (stereo not drawn) [Compound 28]	2500

Okay, next one:
[Q] What does the record list as solubility for CCOCC(=O)N(c1c(C)ccc([N+](=O)[O-])c1C)C(C)C(=O)OC (stereo not drawn) [Compound 31] ?
[A] 2500
